assayedTarget: T1, human C5 protein (human, UniProt P01031 19-673; P01031 678-1676)
T1 construct: Natural C5 is made from one precursor and circulates as two disulfide-linked chains; also called complement component C5; purified human C5
test: fluorescence polarization, 25 nM R3076 with increasing concentrations of C5, average of 10 to 60 minutes
metric: Kd (nM)

| binder | readoutUnit | numericValue |
| --- | --- | --- |
| VVYENGYWEYPGVK (Ac-Nvl-Nvl-Y-E-N-Tbg-Y-azaTrp-E-Y-P-Chg-Nvl-K-(BODIPY-TMR-X) NH2, R3072 with BODIPY-TMR dye on the C-terminal lysine; fluorescent probe of the FP assay; also called Probe R3076; labeled probe) [R3076] | nM | 8.07 |

FYI, the data here is from patent US11535650.
